Test system: R. sanguineus tick larvae
condition_summary: pure compound, concentration 300 μmol/m^2; median of replicates
Structures can show the parent of a compound that is named as a salt.
compounds and their reported Repellence Median (Q1-Q3) [%]
Response body: numeric value in %, unit text excluded.

# example entries with known answers
Query: Quick one: give measured Repellence Median (Q1-Q3) [%] for C1=CC[C@@H](c2cccnc2)NC1 [(S)-anatabine dihydrochloride]
Reply: 79.8

Query: Quick one: give measured Repellence Median (Q1-Q3) [%] for C1=CC[C@H](c2cccnc2)NC1 [(R)-anatabine dihydrochloride]
Reply: 88.3

Query: Quick one: give measured Repellence Median (Q1-Q3) [%] for c1cncc([C@@H]2CCCCN2)c1 [(S)-anabasine]
Reply: 40.5

Consider now this further compound.
Query: Quick one: give measured Repellence Median (Q1-Q3) [%] for CCN(CC)C(=O)c1cccc(C)c1 [DEET, N,N-Diethyl-m-toluamide]
Reply: 100

----------
Test system: R. sanguineus tick larvae
condition_summary: pure compound, concentration 300 μmol/m^2; motility reduction over 9 min
Counter-ions that a name gives are not always drawn.
compounds and their reported Knockdown Median (Q1-Q3) [%]
Reply with the number, then its unit.

# example entries with known answers
Query: Quick one: give measured Knockdown Median (Q1-Q3) [%] for c1cncc([C@@H]2CCCN2)c1 [(S)-nornicotine]
Reply: 18.7%

Query: Quick one: give measured Knockdown Median (Q1-Q3) [%] for c1cncc([C@@H]2CCCCN2)c1 [(S)-anabasine]
Reply: 9.5%

Query: Quick one: give measured Knockdown Median (Q1-Q3) [%] for C1=CC[C@@H](c2cccnc2)NC1 [(S)-anatabine dihydrochloride]
Reply: 14.2%

More entries:
Query: Quick one: give measured Knockdown Median (Q1-Q3) [%] for CCN(CC)C(=O)c1cccc(C)c1 [DEET, N,N-Diethyl-m-toluamide]
Reply: 11.1%

----------
System: R. sanguineus tick larvae
condition_summary: smallest concentration with median activity above 50% significance limit
Structures can show the parent of a compound that is named as a salt.
compounds and their reported Knockdown Minimum effective concentration

# example entries with known answers
Query: Recall the reported Knockdown Minimum effective concentration of c1cncc([C@@H]2CCCN2)c1 [(S)-nornicotine] when tested on R. sanguineus tick larvae.
Reply: >300 μmol/m^2

Query: Recall the reported Knockdown Minimum effective concentration of C1=CC[C@H](c2cccnc2)NC1 [(R)-anatabine dihydrochloride] when tested on R. sanguineus tick larvae.
Reply: 100 μmol/m^2

Query: Recall the reported Knockdown Minimum effective concentration of c1cncc([C@@H]2CCCCN2)c1 [(S)-anabasine] when tested on R. sanguineus tick larvae.
Reply: >300 μmol/m^2

More entries:
Query: Recall the reported Knockdown Minimum effective concentration of CN1CCC[C@H]1c1cccnc1 [(S)-nicotine] when tested on R. sanguineus tick larvae.
Reply: 300 μmol/m^2

Query: Recall the reported Knockdown Minimum effective concentration of C1=CC[C@@H](c2cccnc2)NC1 [(S)-anatabine dihydrochloride] when tested on R. sanguineus tick larvae.
Reply: >300 μmol/m^2

Query: Recall the reported Knockdown Minimum effective concentration of CCN(CC)C(=O)c1cccc(C)c1 [DEET, N,N-Diethyl-m-toluamide] when tested on R. sanguineus tick larvae.
Reply: >300 μmol/m^2

----------
Test system: R. sanguineus tick larvae
condition_summary: pure compound, concentration 3 μmol/m^2; median of replicates
Counter-ions that a name gives are not always drawn.
Just a reminder that ties go to criterion not met: only Repellence Median (Q1-Q3) [%] strictly below 10% counts as criterion met.

Solved cases (4 shown):
Query: Does the reported Repellence Median (Q1-Q3) [%] of C1=CC[C@@H](c2cccnc2)NC1 [(S)-anatabine dihydrochloride] stay below 10%?
Reply: criterion not met

Query: Does the reported Repellence Median (Q1-Q3) [%] of CCN(CC)C(=O)c1cccc(C)c1 [DEET, N,N-Diethyl-m-toluamide] stay below 10%?
Reply: criterion not met

Query: Does the reported Repellence Median (Q1-Q3) [%] of c1cncc([C@@H]2CCCN2)c1 [(S)-nornicotine] stay below 10%?
Reply: criterion not met

Query: Does the reported Repellence Median (Q1-Q3) [%] of C1=CC[C@H](c2cccnc2)NC1 [(R)-anatabine dihydrochloride] stay below 10%?
Reply: criterion not met

Here's the next entry for you.
Query: Does the reported Repellence Median (Q1-Q3) [%] of c1cncc([C@@H]2CCCCN2)c1 [(S)-anabasine] stay below 10%?
Reply: criterion met
